protocol.details: qHTS assay to identify small molecule antagonists of the thyroid receptor (TR) signaling pathway - cell viability counter screen (AID 743064); further: nearly all actives have a fitted effect of over 50% in size
measurement.parameters: GH3.TRE-Luc viability, CellTiter-Fluor, 24 h; series mostly up to 70.3 µM
Results filed as inconclusive are left out. Active and inactive are the calls of the source. The call rests on the fitted dose curve; in most records, active means well fitted cell-killing curve with a large enough effect in the repeat runs; inconclusive means weak or mixed curves, or effect the other way; inactive means no such curve, though single readings can be large or run the other way.
API: response.call in true = active, false = inactive

Use these answered entries as a reference point.
molecule: CCCCc1ccc(O)cc1
assigned.label: false

molecule: CC1=C(C(=O)Nc2ccccc2)S(=O)(=O)CCO1
assigned.label: true

molecule: C=C(C)[C@@H]1CC=C(C=O)CC1
assigned.label: false

molecule: Clc1cccc(N2CCNCC2)c1
assigned.label: false

molecule: N#Cc1ccncc1
assigned.label: false

Exercise: Answer briefly: the call reported for CCCCP(CCCC)CCCC in this assay.
Key: false

Exercise: Note, next up: CCC(C)n1c(=O)[nH]c(C)c(Br)c1=O (stereo not given)
Key: false

Exercise: Note, next up: c1coc(-c2nc3ccccc3[nH]2)c1
Key: false

Exercise: Note, next up: CCSC(=O)N(CC)C1CCCCC1
Key: false

Exercise: Note, next up: CN1CCN(C(=O)O[C@H]2c3nccnc3C(=O)N2c2ccc(Cl)cn2)CC1
Key: false

Exercise: Note, next up: CC(Oc1ccc(Oc2ncc(C(F)(F)F)cc2Cl)cc1)C(=O)O (stereo not given)
Key: false

Exercise: Note, next up: Cc1cccc(C#N)c1
Key: false

Exercise: Note, next up: Cc1nc(N)nc(N)n1
Key: false

Exercise: Note, next up: CCCSC(=O)N(CCC)CCC
Key: false

Exercise: Note, next up: O=C1c2ccccc2C(=O)c2ccccc21
Key: false

###

protocol.details: qHTS assay to test for compound auto fluorescence at 460 nm (blue) in HEK293 cell free culture (AID 720681); further: on the % scale 0 is the no-effect control and ±100 the full control effect
measurement.parameters: cell-free medium, autofluorescence 405/460 nm (blue); series mostly up to 91.3 µM
Activity calls are given as the source filed them. The call rests on the fitted dose curve; in most records, active means well fitted curve in the direction sought with a large enough effect in the repeat runs; inconclusive means weak or mixed curves; inactive means flat fitted curve, though single readings scatter.
measure: fluorescence, % of fluorescent control

Example compounds with recorded fluorescence, % of fluorescent control:
compound: Cc1nc(N)nc(N)n1
fluorescence, % of fluorescent control: inactive

compound: CC1CCC(=O)O1 (centres undefined)
fluorescence, % of fluorescent control: inactive

compound: O=C(O)c1cccc(Cl)c1
fluorescence, % of fluorescent control: inactive

compound: CNCC(=O)c1ccc(O)c(O)c1
fluorescence, % of fluorescent control: inactive

compound: COc1ncc(F)c2nc(S(=O)(=O)Nc3c(F)cccc3F)nn12
fluorescence, % of fluorescent control: inactive

Items follow; give fluorescence, % of fluorescent control for each.
1. O=[N+]([O-])c1ccc2c3c(cccc13)CC2
2. CNC(=O)Oc1ccccc1C1OCCO1
3. CCC(Cl)[N+](=O)[O-] (centres undefined)
4. CCCSP(=S)(OCC)Oc1ccc(Cl)cc1Cl (centres undefined)

Key:
inactive
inactive
inactive
inactive

Items follow; give fluorescence, % of fluorescent control for each.
1. O=C1OC(=O)C2C1C1(Cl)C(Cl)=C(Cl)C2(Cl)C1(Cl)Cl (centres undefined)
2. O=C(Oc1ccc(Br)cc1)N1CCN2CCC1CC2
3. CNC(=O)O/N=C(\C)SC
4. C=CC1CC=CCC1 (centres undefined)
5. CC(CCc1ccccc1)NC(C)C(O)c1ccc(O)cc1 (centres undefined)

Key:
1: inactive; 2: inactive; 3: inactive; 4: inactive; 5: inactive

###

Provide the reported activation of each item.
target.of.assay: Estrogen receptor (Homo sapiens)
protocol.details: qHTS assay to identify small molecule agonists of the estrogen receptor alpha (ER-alpha) signaling pathway using the BG1 cell line (AID 743079); further: on the % scale 0 is the no-effect control and ±100 the full control effect; nearly all actives have a fitted effect of over 20% in size
measurement.parameters: BG1Luc4E2 cells, ERE-luciferase agonist, 22 h; at 70.3 µM (top of the series)
Records with an inconclusive call do not appear.
Numbers only, in %.

Example molecules with recorded activation:
molecule: Cc1ncsc1CCCl
target.of.assay: Estrogen receptor (Homo sapiens)
activation (%): 1.72
--
molecule: CS(=O)(=O)c1cc(C(F)(F)F)ccc1C(=O)c1cnoc1C1CC1
target.of.assay: Estrogen receptor (Homo sapiens)
activation (%): 0.699
--
molecule: NC(=O)O
target.of.assay: Estrogen receptor (Homo sapiens)
activation (%): -5.63
--
molecule: C(CCOCC1CO1)COCC1CO1 (stereo not drawn)
target.of.assay: Estrogen receptor (Homo sapiens)
activation (%): 0.112
--
molecule: CCC(=O)c1ccccc1
target.of.assay: Estrogen receptor (Homo sapiens)
activation (%): -1.07

Items follow; give activation for each.
1. CCOc1nc(C(Cl)(Cl)Cl)ns1
2. CCN(CC)c1nc(C)cc(OP(=S)(OC)OC)n1
3. O=[N+]([O-])c1cc(Cl)c(Cl)c(Cl)c1
4. O=C(Oc1ccc(Br)cc1)N1CCN2CCC1CC2
5. CNC(=O)Oc1ccccc1C1OCCO1
6. COc1ncc(F)c2nc(S(=O)(=O)Nc3c(F)cccc3F)nn12
7. O=C1OC(c2ccc(O)c(S(=O)(=O)O)c2)(c2ccc(O)c(S(=O)(=O)O)c2)c2c(Br)c(Br)c(Br)c(Br)c21

Key:
4.23
4.15
9.06
1.03
-9.73
-3.47
-0.304

Exercise: What measured activation goes with CC(=O)CCc1ccc2c(c1)OCO2 ?
Key: 24.9

###

protocol.details: qHTS assay to identify small molecule antagonists of the sonic hedgehog signaling (Shh) pathway (AID 1259369); further: on the % scale 0 is the no-effect control and ±100 the full control effect; nearly all actives have a fitted effect of over 45% in size
measurement.parameters: NIH/3T3 Gli1-Luc reporter, Shh antagonist, luminescence 24 h; series mostly up to 92.4 µM
Records with an inconclusive call do not appear. Active and inactive are the calls of the source. The call rests on the fitted dose curve.
API: response.call in class 1 for active, class 0 for inactive

Use these answered entries as a reference point.
compound: Cc1cc(C)nc(Nc2ccccc2)n1
assigned.label: class 0
--
compound: CCOP(=O)(N=C1SCCS1)OCC
assigned.label: class 0

Exercise: Answer briefly: the call reported for CC(C)(C)C(=O)C(Oc1ccc(Cl)cc1)n1cncn1 (configuration not stated) in this assay.
Key: class 0

Exercise: Note, next up: N#CCNCC#N
Key: class 0

Exercise: Note, next up: CNC(=O)Oc1ccc(N(C)C)c(C)c1
Key: class 0

###

protocol.details: A CellTox Green Cytotoxicity Assay to monitor cytotoxicity in HepG2 cells - 0 hour (AID 1224882); further: on the % scale 0 is the no-effect control and ±100 the full control effect; nearly all actives have a fitted effect of over 35% in size
measurement.parameters: CellTox Green fluorescence; series mostly up to 76.8 µM
Calls of active or inactive are those of the source. Calls come from the whole dose curve; as a rule, active = well fitted activation curve with a large enough effect in the repeat runs; inconclusive = weak or mixed curves; inactive = flat fitted curve, though single readings scatter.
measure: outcome

Example compounds with recorded outcome:
substance.smiles: COc1cc(C[C@@H](C)N)c(OC)cc1C
endpoint.value: inactive
//
substance.smiles: CNC(=O)O/N=C(\C)SC
endpoint.value: inactive
//
substance.smiles: O=[N+]([O-])c1cc(Cl)c(Cl)c(Cl)c1
endpoint.value: inactive
//
substance.smiles: CC1(C)COP(Oc2ccccc2)OC1
endpoint.value: inactive
//
substance.smiles: c1cc[c]([Hg][c]2ccccc2)cc1
endpoint.value: inactive
//
substance.smiles: O=NN1CCCCC1
endpoint.value: inactive
//
substance.smiles: CCCCCCI
endpoint.value: inactive
//
substance.smiles: CNC(=O)Oc1cccc(C(C)C)c1
endpoint.value: inactive
//
substance.smiles: Nc1n[nH]c(N)n1
endpoint.value: inactive
//
substance.smiles: CSc1nc(N=[N+]=[N-])nc(NC(C)C)n1
endpoint.value: inactive

Items follow; give outcome for each.
1. COc1cccc2c1cc([N+](=O)[O-])c1c(C(=O)O)cc3c(c12)OCO3
2. CCCCN(CCCCO)N=O
3. COc1ncc(F)c2nc(S(=O)(=O)Nc3c(F)cccc3F)nn12

Key:
1: inactive; 2: inactive; 3: inactive

###

target.of.assay: Cytochrome P450 3A4 (Homo sapiens) (UniProt P08684)
Sequence (P08684 whole entry, looked up): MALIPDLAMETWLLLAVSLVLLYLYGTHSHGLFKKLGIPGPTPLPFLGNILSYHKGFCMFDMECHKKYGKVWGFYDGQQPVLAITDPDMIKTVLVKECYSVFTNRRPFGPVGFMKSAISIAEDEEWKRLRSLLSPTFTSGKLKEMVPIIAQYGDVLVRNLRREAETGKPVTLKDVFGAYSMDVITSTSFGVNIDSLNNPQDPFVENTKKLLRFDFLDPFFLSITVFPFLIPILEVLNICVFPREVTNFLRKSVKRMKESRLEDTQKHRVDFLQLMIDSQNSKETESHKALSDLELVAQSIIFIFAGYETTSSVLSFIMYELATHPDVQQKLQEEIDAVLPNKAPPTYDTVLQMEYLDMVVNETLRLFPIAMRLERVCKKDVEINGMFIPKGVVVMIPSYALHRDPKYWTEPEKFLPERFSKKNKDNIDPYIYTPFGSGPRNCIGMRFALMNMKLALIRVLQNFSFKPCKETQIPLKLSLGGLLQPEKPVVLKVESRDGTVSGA
protocol.details: Cytochrome P450 Family 3 Subfamily A Member 4 (CYP3A4) small molecule antagonists: luciferase reporter qHTS assay (AID 1671201); further: nearly all actives have a fitted effect of over 50% in size
measurement.parameters: P450-Glo CYP3A4 enzyme, luciferin luminescence, 1 h; series mostly up to 115 µM
Results filed as inconclusive are left out. Activity calls are given as the source filed them. The call rests on the fitted dose curve; in most records, active means well fitted inhibition curve with a large enough effect in the repeat runs; inconclusive means weak or mixed curves; inactive means no such curve, though single readings can be large or run the other way.
API: response.call in TRUE for active, FALSE for inactive

Use these answered entries as a reference point.
molecule: O=C(Nc1ccccc1)c1ccccc1I
assigned.label: TRUE
//
molecule: O=C1CN=C(c2ccccc2)c2cc([N+](=O)[O-])ccc2N1
assigned.label: FALSE
//
molecule: CCC#N
assigned.label: FALSE

Exercise: Answer briefly: the call reported for CCC(C)n1c(=O)[nH]c(C)c(Br)c1=O (configuration not stated) in this assay.
Key: FALSE

###

protocol.details: qHTS RealTime-Glo MT Cell Viability Assay in HEK293 cells - 32 hour (AID 1224868); further: nearly all actives have a fitted effect of over 50% in size
measurement.parameters: RealTime-Glo luminescence; series mostly up to 76.8 µM
Results filed as inconclusive are left out. Calls of active or inactive are those of the source. Calls follow the shape of the dose curve; as a rule, active = well fitted cell-killing curve with a large enough effect in the repeat runs; inconclusive = weak or mixed curves, or effect the other way; inactive = flat fitted curve, though single readings scatter.
API: response.call in active, inactive

Use these answered entries as a reference point.
compound: CNNC
assigned.label: inactive
--
compound: CC(C)COP(=O)(OCC(C)C)OCC(C)C
assigned.label: inactive
--
compound: Oc1c(Cl)cccc1Cl
assigned.label: inactive
--
compound: CC1=C(C(=O)Nc2ccccc2)S(=O)(=O)CCO1
assigned.label: active

Exercise: Answer briefly: the call reported for ClCCCN1CCN(c2cccc(Cl)c2)CC1 in this assay.
Key: inactive
